Value source: paper PMC3153478

Target or system UniProt:U3BEV1: recorded pIC50 listed per item.
Scale for pIC50: -log10 of concentration given in mol/L; no unit attached.

# MOLECULE, QUANTITATIVE_READOUT
rows = [
    ("Oc1ccc(-c2ccc(-c3cc(O)cc(F)c3)s2)cc1 [Compound 6]", 7.07),
]

## Task Data request, read-out pIC50, for O=C(c1cccc(O)c1)c1ccc(-c2ccc(O)cc2)s1 [Compound 12]
## Result 7.37

###

# SYSTEM: marmoset 17β-HSD1 (Callithrix jacchus)
# Construct: For the partial purification of 17β-HSD1, the cytosolic fraction was precipitated with ammonium sulfate; from tissue; host or cells: marmoset placenta, cytosolic fraction, ammonium sulfate precipitate
# PROCEDURE_DETAILS: Inhibition of marmoset 17β-HSD1 (placental cytosolic fraction, tritiated E1, HPLC)
# Assay type: biochemical, marmoset monkey (callithrix jacchus)
# RUN_CONDITIONS: Logit transformed values calculated from % inhibition, inhibitor concentration: 5 nM; placental cytosolic fraction, substrate E1 500 nM, NADH 500 µM; read-out: Marmoset IC50 17ß-HSD1
# Method: Marmoset placental tissue was used as enzyme source and the proteins were partially purified following a described procedure. Tritiated E1 was incubated with 17β-HSD1, cofactor and inhibitor. […] Labelled product was quantified after HPLC separation. […] Inhibitory activities were evaluated by an established method with minor modifications. […] Detection and quantification of the steroids were performed using a radioflow detector (Agilent 1200 Series, Agilent Technologies, Waldbronn). […]
Let's look at some molecules and their measured IC50.

Here are 2 molecules together with their reported answers.
# SMILES_NOTATION, IC50
rows = [
    ("Oc1cccc(-c2ccc(-c3ccc(O)c(F)c3)s2)c1", "< 5 nM"),
    ("Oc1ccc(-c2ccc(-c3cc(O)cc(F)c3)s2)cc1", "< 5 nM"),
]

## Task Data request, read-out IC50, for "Oc1cc(F)cc(-c2ccc(-c3ccc(O)c(F)c3)s2)c1"
## Result < 5 nM

###

# SYSTEM: marmoset 17β-HSD1 (Callithrix jacchus, UniProt Q9GME2)
# Construct: For the partial purification of 17β-HSD1, the cytosolic fraction was precipitated with ammonium sulfate; from tissue; host or cells: marmoset placenta, cytosolic fraction, ammonium sulfate precipitate
# Sequence (Q9GME2 1-314): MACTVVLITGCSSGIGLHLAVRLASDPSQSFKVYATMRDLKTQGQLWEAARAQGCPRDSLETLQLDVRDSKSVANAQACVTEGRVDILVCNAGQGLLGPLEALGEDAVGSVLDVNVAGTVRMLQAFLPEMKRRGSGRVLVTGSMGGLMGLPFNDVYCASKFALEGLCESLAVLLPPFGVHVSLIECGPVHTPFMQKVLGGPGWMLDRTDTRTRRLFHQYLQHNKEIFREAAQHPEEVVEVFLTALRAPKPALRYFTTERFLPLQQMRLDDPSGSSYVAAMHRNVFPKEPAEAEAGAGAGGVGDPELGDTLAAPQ
# PROCEDURE_DETAILS: Inhibition of marmoset 17β-HSD1 (placental cytosolic fraction, tritiated E1, HPLC)
# Assay type: biochemical, marmoset monkey (callithrix jacchus)
# RUN_CONDITIONS: read-out: Marmoset IC50 17ß-HSD1
# Method: Marmoset placental tissue was used as enzyme source and the proteins were partially purified following a described procedure. Tritiated E1 was incubated with 17β-HSD1, cofactor and inhibitor. […] Labelled product was quantified after HPLC separation. […] Inhibitory activities were evaluated by an established method with minor modifications. […] Detection and quantification of the steroids were performed using a radioflow detector (Agilent 1200 Series, Agilent Technologies, Waldbronn). […]
pIC50: −log10 of the molar value.
READOUT_NAME: pIC50

## Task Data request, read-out pIC50, for "Oc1cccc(-c2ccc3cc(O)ccc3c2)c1"
## Result < 7.30

###

Let's look at some molecules and their measured IC50.
# SYSTEM: marmoset 17β-HSD1 (Callithrix jacchus)
# Construct: For the partial purification of 17β-HSD1, the cytosolic fraction was precipitated with ammonium sulfate; from tissue; host or cells: marmoset placenta, cytosolic fraction, ammonium sulfate precipitate
# PROCEDURE_DETAILS: Inhibition of marmoset 17β-HSD1 (placental cytosolic fraction, tritiated E1, HPLC)
# Assay type: biochemical, marmoset monkey (callithrix jacchus)
# RUN_CONDITIONS: Logit transformed values calculated from % inhibition at 50 nM inhibitor concentration (trend for <30% or >70%); placental cytosolic fraction, substrate E1 500 nM, NADH 500 µM; read-out: Marmoset IC50 17ß-HSD1

# SMILES_NOTATION, SYSTEM, IC50
rows = [
    ("CS(=O)(=O)Nc1cccc(-c2c(O)ccc3cc(-c4cccc(O)c4)ccc23)c1", "marmoset 17β-HSD1 (Callithrix jacchus)", "> 50 nM"),
]

## Task Data request, read-out IC50, for "CC(=O)Nc1cccc(-c2c(O)ccc3cc(-c4cccc(O)c4)ccc23)c1"
## Result > 50 nM

## Task Data request, read-out IC50, for "Cc1cc(-c2ccc(-c3cccc(O)c3)s2)ccc1O"
## Result < 50 nM

## Task Data request, read-out IC50, for "Cc1cc(-c2cnc(-c3cccc(O)c3)s2)ccc1O"
## Result < 50 nM

## Task Data request, read-out IC50, for "O=C(c1cccc(O)c1)c1ccc(-c2ccc(O)cc2)s1"
## Result < 50 nM

## Task Data request, read-out IC50, for "Oc1cccc(-c2ccc3c(-c4cccnc4)c(O)ccc3c2)c1"
## Result > 50 nM

###

pIC50: −log10 of the molar value.
Target or system marmoset 17β-HSD2 (Callithrix jacchus, UniProt U3BEV1): recorded pIC50 listed per item.

# SMILES_NOTATION, SYSTEM, READOUT_NAME, RESULT
measured = [
    ("Oc1cccc(-c2ccc3c(-c4ccccc4)c(O)ccc3c2)c1", "marmoset 17β-HSD2 (Callithrix jacchus, UniProt U3BEV1)", "pIC50", "< 7.30"),
    ("Oc1ccc(-c2cnc(-c3cccc(O)c3)s2)cc1", "marmoset 17β-HSD2 (Callithrix jacchus, UniProt U3BEV1)", "pIC50", "< 7.30"),
]

Then there is this compound:
## Task Data request, read-out pIC50, for "Cc1cc(-c2ccc(-c3cccc(O)c3)s2)ccc1O"
## Result < 7.30
